# TARGET_SYSTEM: T1, human IL-1α (human, UniProt P01583 113-271)
# T1 construct: also called IL-1alpha; hIL-1α
# T1 sequence (looked up): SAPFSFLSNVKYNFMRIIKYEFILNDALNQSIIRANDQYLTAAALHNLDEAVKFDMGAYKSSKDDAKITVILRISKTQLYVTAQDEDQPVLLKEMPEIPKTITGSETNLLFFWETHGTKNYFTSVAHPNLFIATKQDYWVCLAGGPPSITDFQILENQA
# MEASUREMENT_PROTOCOL: Table 62 IC50; RBA presumed
QUANTITY_MEASURED: IC50 (nM)

Solved entries (count: 5):
[Q] Which IC50 value belongs to ABT1-95-91 (other, VK dAb) VL: DIQMTQSPSSLSASVGDRVTITCRASQPIVRNLRWYQQKPGKAPKLLIYSSSNLEPGVPSRFSGSGSGTDFTLTISSLQPEDFATYHCQQGYRWPVTFGQGTKVEIKR ?
[A] 0.3

[Q] Moving on to the next binder: ABT1-141-77 (other, VK dAb) VL: DIQMTQSPSSLSASVGDRVTITCRANQWIQKQLAWYQQKPGKAPKLLIFSSSHLQSGVPSRFSGSGSGTDFTLTISSLQPQDFATYYCQQHLRVPMTFGQGTKVEIKR
[A] 3

[Q] Moving on to the next binder: ABT1-95-12 (other, VK dAb) VL: DIQMTQSPSSLSASVGDRVTITCRASQPIHGNLRWYQQKPGKAPKLLIYSSSYLESWVPSRFSGSGSGTDFTLTISSLQPEDFATYHCQQGYRWPVTFGQGTKVEIKR
[A] 0.8

[Q] Moving on to the next binder: ABT1-95-46 (other, VK dAb) VL: DIQMTQSPSSLSASVGDRVTITCRASSPIVQNLRWYQQKPGKAPKLLIYSSSYLEPGVPSRFSGSGSGTDFTLTISSLQPEDFATYHCQQGYRWPVTFGQGTKVEIKR
[A] 0.8

[Q] Moving on to the next binder: ABT1-141-19 (other, VK dAb) VL: DIQMTQSPSSLSASVGDRVTITCRASQWIQKQLAWYQQKPGKAPKLLIYSSSWLQSGVRSRFSGSGSGTDFTLTISSLQPEDFATYYCQQHLRVPFTFGQGTKVEIKR
[A] 50

[A] ABT1-141-43 (other, VK dAb) VL: DIQMTQSPSSLSASVGDRVTITCRASQWIQKQLAWYQQKPGKAPKLLIYSSSYLQSGVPPRFSGSGSGTDFTLTISSLQPEDFATYYCQQHLRVPMTFGQGTKVEIKR
[B] ABT1-95-33 (other, VK dAb) VL: DIQMTQSPSSLSASVGDRVTITCRASQPIVRNLRWYQQKPGKAPKLLIYSSSYLEPGVPSRFSGSGSGTDFTLTISSLQPEDFATYYCRQGYRWPVTFGQGTKVEIKR
[Q] // compare: A vs B , metric IC50, want the smaller // caller expects the label of the chosen entry
[A] B
(B: 0.5 nM, A: 3 nM)
